Endpoint: melting point

Check out these entries, answers already filled in.
COC(=O)c1cc(N(C)C)cc(N(C)C)c1
86 to 88 °C
Cc1ccc2c(c1)C(C(Cl)(Cl)Cl)OC(C(Cl)(Cl)Cl)O2 (configuration not stated)
134 to 135 °C
CN(C)C(c1ccccc1)(c1cccc(Oc2ccccc2)c1)C1CCCCC1(O)Cc1ccccc1 (configuration not stated)
189 to 190 °C

Consider the additional compound presented here.
Return melting point for the following compound: "Fc1ccc(Cl)c2ncccc12" 74 to 76 °C

====

Endpoint: melting point

Check out these entries, answers already filled in.
CC(C)c1cc(O)c2c(c1)OC(C)(C)C1=C2CN(CC(=O)NC(N)=O)CC1
164 to 166 °C
CCOc1nn(CCO)cc1C(=O)NCc1ccc(Cl)cc1Cl
152 to 153 °C
COc1ccc(/C=C/c2cc(/C=C/c3ccc4[nH]ccc4c3)n[nH]2)cc1OCc1ccccn1
109 to 118 °C
CS(=O)(=O)c1c(C(=O)NN=Cc2ccc(Cl)cc2)[nH]c2ccccc12
> 280 °C
CCN(CC)c1ncnc2c1ncn2C1CC(F)C(CO)O1 (stereo unspecified)
114 to 115 °C

Consider the additional compound presented here.
Return melting point for the following compound: "CS(=O)(=O)N=C(Oc1ccccc1)Oc1ccccc1" 124 to 126 °C
